test system: CCRF-CEM; assay: CCK-8 proliferation, CCRF-CEM; type: cell-based, Human; details: Homo sapiens, CCRF-CEM; CCK-8; 96 hours; read-out: Inhibitory activity (IC50) on tumor cell proliferation, CCRF-CEM
pIC50: −log10 of the molar value.
property-measured: pIC50

Lookup: # get_value(readout='pIC50', item= Cc1nc2c(F)cc(-c3nc(Nc4ccc(CN5CCN(Cc6ccc(C7CCC(=O)NC7=O)cc6)CC5)cn4)ncc3F)cc2n1C(C)C (stereo not drawn) [GT-06664] )
Found: 6.00 to 6.30

Lookup: Now this one: Cn1ncc(-c2nc(NC3CCN(Cc4ccc(C5CCC(=O)NC5=O)c(F)c4)CC3)ncc2Cl)c1CC1CC1 (stereo not drawn) [GT-04051]
Found: 6.00 to 6.30

Lookup: Also Cc1nc2c(F)cc(-c3nc(Nc4ccc(CN5CCN(Cc6ccc(N7CCC(=O)NC7=O)cn6)CC5)cn4)ncc3F)cc2n1C(C)C [GT-06667] ?
Found: 6.30 to 7.00

Lookup: Another: Cc1nc2c(F)cc(-c3nc(Nc4ccc(N5CCC(N6CCN(Cc7ccnc(N8CCC(=O)NC8=O)c7)CC6)CC5)cn4)ncc3F)cc2n1C(C)C [GT-07487]
Found: 7.00 to 7.30

Lookup: // next record CC(=O)c1c(C)c2cnc(Nc3ccc(N4CCC(N5CCN(Cc6ccc(C7CCC(=O)NC7=O)cc6)CC5)CC4)cn3)nc2n(C2CCCC2)c1=O (stereo not drawn) [GT-06659]
Found: 6.30 to 7.00

Lookup: Cc1nc2c(F)cc(-c3nc(Nc4ccc(N5CCC(N6CCN(Cc7cccc(N8CCC(=O)NC8=O)c7)CC6)CC5)cn4)ncc3F)cc2n1C(C)C [GT-06740] ?
Found: 6.30 to 7.00

Others:
Lookup: Which pIC50 is listed for Cc1ccsc1C(=O)n1nc(Nc2ccc(S(=O)(=O)N3CCN(Cc4ccc(N5CCC(=O)NC5=O)nc4)CC3)cc2)nc1N [GT-06861] ?
Found: 6.00 to 6.30

Lookup: Next: CNC(=O)c1ccccc1Nc1cc(Nc2ccc(N3CCC(N(C)Cc4ccc(C5CCC(=O)NC5=O)c(F)c4)CC3)cc2OC)ncc1C(F)(F)F (stereo not drawn) [GT-03734]
Found: 6.30 to 7.00

Lookup: One more compound: CNC(=O)c1ccccc1Nc1cc(Nc2cc(C)c(N3CCC(N(C)Cc4ccc(C5CCC(=O)NC5=O)cc4)CC3)cc2OC(C)C)ncc1C(F)(F)F (stereo not drawn) [GT-04094]
Found: 6.00 to 6.30

Lookup: Another compound: CC1(C)CCC(c2ccc(Cl)cc2)=C(CN2CCN(c3ccc(C(=O)NS(=O)(=O)c4ccc(N[C@H](CCN5CCN(Cc6cccc(N7CCC(=O)NC7=O)c6)CC5)CSc5ccccc5)c(S(=O)(=O)C(F)(F)F)c4)cc3)CC2)C1 [GT-04278]
Found: 8.00 to 9.00

Lookup: Request: Cc1nc2c(F)cc(-c3nc(Nc4ccc(N5CCC(N6CCN(Cc7ccc(C8CCC(=O)NC8=O)c(F)c7)CC6)CC5)cn4)ncc3F)cc2n1C(C)C (stereo not drawn) [GT-03906]
Found: 6.30 to 7.00

Lookup: Subsequent entry: Cc1nc2c(F)cc(-c3nc(Nc4ccc(N5CCC(N6CCN(Cc7ccc(N8CCC(=O)NC8=O)cn7)CC6)CC5)cn4)ncc3F)cc2n1C(C)C [GT-06741]
Found: 7.00 to 7.30
